assay: COS7 lysate on small-molecule microarray, probe aHis, 635 nm (AID 1123); settings: COS7 cell lysate, fluorescence, higher = more signal;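 further: z-score combines 667nm fluorescence intensity with signal-to-noise per printed compound spot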
# label = YES if composite z-score >= 0.3 else NO

Worked examples, 7 molecules total:
1) CO[C@H]1COC(=O)[C@H](Cc2ccccc2)NC(=O)CC=C[C@@H](C)[C@H](OC)COC(=O)CC=C[C@@H]1C: NO
2) COC(=O)C[C@H]1O[C@]2(C(=O)N(C)c3ccccc32)[C@@H](C)[C@@H]1[Si](C)(C)c1ccc(OC)cc1: YES
3) CCCC[C@H]1OB(O)C[C@H]2C1=C(COC)C[C@H]1C(=O)N(Cc3ccccc3)C(=O)[C@H]12: NO
4) CCOC(=O)C1=C[C@@H](c2ccccc2)N(S(=O)(=O)c2ccc(C)cc2)[C@H]1c1ccc(F)cc1: YES
5) CN1C2C=C(c3ccc(CO)cc3)C(C3C(=O)N(C(N)=O)C(=O)C32)C1c1cccs1 (stereo not drawn): YES
6) COc1ccc(-c2ccccc2[C@@H]2N[C@H](C(=O)O)CC[C@H]2C)cc1: YES
7) C=CC[C@@]12N=C(c3ccc(OCCCO)cc3)O[C@@H]1c1ccccc1CN(Cc1ccccc1)C2=O: YES

Enquiry: Test whether the molecule `[N-]=[N+]=NCc1ccccc1C[C@@]1(C(=O)N2CCOCC2)N=C(c2ccc(OCCCO)cc2)O[C@@H]1c1ccccc1N=[N+]=[N-]` records composite z-score of 0.3 or higher.
Return: YES
